Biological target: T1, recombinant cynomolgous IL-23 (cynomolgous)
T1 chain 1: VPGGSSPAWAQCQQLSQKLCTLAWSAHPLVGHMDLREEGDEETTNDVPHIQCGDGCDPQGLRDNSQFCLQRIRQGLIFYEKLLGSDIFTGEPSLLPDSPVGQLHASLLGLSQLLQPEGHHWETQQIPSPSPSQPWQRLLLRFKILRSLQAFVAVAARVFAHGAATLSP
T1 chain 2: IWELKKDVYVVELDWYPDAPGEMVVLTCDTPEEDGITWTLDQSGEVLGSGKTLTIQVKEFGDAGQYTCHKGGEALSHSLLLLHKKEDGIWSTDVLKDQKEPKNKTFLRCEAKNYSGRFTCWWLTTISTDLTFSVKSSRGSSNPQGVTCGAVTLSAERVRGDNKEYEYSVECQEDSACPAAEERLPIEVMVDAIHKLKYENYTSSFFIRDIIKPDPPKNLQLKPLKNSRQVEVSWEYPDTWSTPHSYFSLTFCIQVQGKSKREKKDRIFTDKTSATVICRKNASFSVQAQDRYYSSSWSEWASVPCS
Assay: cell-based or functional assay
Please respond with Met when measured IC50 (pM), NK cell assay (IFNγ) is strictly beneath 20 pM, and with Not met in all other cases.

Would you kindly verify if IC50 (pM), NK cell assay (IFNγ) of Antibody G (antibody, V domains shown, also called VH12/VL12) VH: QVQLQESGPRLVKPSETLSLTCTVSGDSISSYFWSWIRQPPGKGLEWLGYIYYSGSTNYNPSLKSRVTISIDTSKNQFSLKLSSVTAADTAVYYCTRDRGSYYGSDYWGQGTLVTVSS VL: DIQMTQSPSSVSASVGDRVTITCRAGQVISSWLAWYQQKPGKAPKLLIYAASSLQSGVPSRFSGSGSGTDFTLTISSLQPDDFATYYCQQATSFPLTFGGGTKVEIK is strictly less than 20 pM?
Not met

Would you kindly verify if IC50 (pM), NK cell assay (IFNγ) of Antibody J (antibody, V domains shown) VH: QVQLVESGGGVVQPGRSLRLSCAASGFTFSSYGMHWVRQAPGKGLEWVAVISFDGSLKYYADSVKGRFTISRDNSKNTLYLQMNSLRAEDTAVYYCARERTTLSGSYFDYWGQGTLVTVSS VL: QAVLTQPSSLSASPGASASLTCTLRSGINVGTYRIYWYQQKPGSPPQYLLRYKSDSDKQQGSGVPSRFSGSKDASANAGILLISGLQSEDEADYYCMIWHSSASVFGGGTKLTVL is strictly less than 20 pM?
Met

Would you kindly verify if IC50 (pM), NK cell assay (IFNγ) of Antibody C (antibody, V domains shown, also called VH10/VL10) VH: QVQLQESGPGLVKPSQTLSLTCTVSGGSINSGGYYWSWIRQHPGKGLEWIGYIYYSGSSYYNPSLKSRVTISVDTSQNQFSLKLSSVTAADTAVYYCARDRGHYYGMDVWGQGTTVTVSS VL: DIQMTQSPSSVSASVGDRVTITCRASQGSSSWFAWYQQKPGKAPKLLIYAASSLQSGVPSRFSGSGSGTDFTLTISSLQPEDFATYYCQQANSFPFTFGPGTKVDIK is strictly less than 20 pM?
Not met

Would you kindly verify if IC50 (pM), NK cell assay (IFNγ) of Antibody L (antibody, V domains shown, also called VH4/VL4) VH: QVQLVESGGGVVQPGRSLRLSCAASGFTFSSYAMHWVRQAPGKGLEWLSVISHDGSIKYYADSVKGRFTISRDNSKNTLYLQMNSLRAEDTAVYYCARERTTLSGSYFDYWGQGTLVTVSS VL: QAVLTQPSSLSASPGASASLTCTLRSGINVGTYRIYWYQQKPGSPPQYLLRYKSDSDKQQGSGVPSRFSGSKDASANAGILLISGLQSEDEADYYCMIWHSSASVFGGGTKLTVL is strictly less than 20 pM?
Met

Would you kindly verify if IC50 (pM), NK cell assay (IFNγ) of Antibody E (antibody, V domains shown) VH: QVQLVESGGGVVQPGRSLRLSCAASGFTFSSYGMHWVRQAPGKGLEWVAVIWYDGSNEYYADSVKGRFTISRDNSKNTLYLQMNSLRAEDTAVYYCARDRGYTSSWYPDAFDIWGQGTMVTVSS VL: QSVLTQPPSVSGAPGQRVTISCTGSSSNTGAGYDVHWYQQVPGTAPKLLIYGSGNRPSGVPDRFSGSKSGTSASLAITGLQAEDEADYYCQSYDSSLSGWVFGGGTRLTVL is strictly less than 20 pM?
Not met
